system: M14 melanoma; test: NCI tumour cell line growth inhibition, 48 h
measurement.label: GI50

[ask] For M14 melanoma, give the measured GI50 of the entry `CCCCCCCCCCCCCCCCCC1=NC(C)(C)CN1CCO`
[reply] 1810 nM

[ask] For M14 melanoma, give the measured GI50 of the entry `CCCCCCN1C(=O)CN=C1Nc1ccc2cc3ccc(NC4=NCC(=O)N4CCCCCC)cc3nc2c1`
[reply] 1950 nM

[ask] For M14 melanoma, give the measured GI50 of the entry `COc1ncnc2c(-c3ccco3)cn(COCc3ccccc3)c12`
[reply] 22500 nM

[ask] For M14 melanoma, give the measured GI50 of the entry `COC(=O)Nc1nc2ccc(Sc3ccc(NC(=O)Nc4cc(C(F)(F)F)ccc4F)cc3)cc2[nH]1`
[reply] 2010 nM

[ask] For M14 melanoma, give the measured GI50 of the entry CCOC(=O)C1=C(c2ccccc2)N(Cc2ccccc2)C2(O)C=CC(=O)C3C(=O)N(c4ccccc4)C(=O)C132 (centres undefined)
[reply] 1920 nM

[ask] For M14 melanoma, give the measured GI50 of the entry COC1C(CO)OC(n2c3ccccc3c3c4c(c5c6ccccc6[nH]c5c32)C(=O)NC4=O)C(O)C1OC(=O)C(N)CCCCN (centres undefined)
[reply] 689 nM

[ask] For M14 melanoma, give the measured GI50 of the entry O=C(NO)C(O)C(O)C(O)C(O)CO (centres undefined)
[reply] > 100000 nM

[ask] For M14 melanoma, give the measured GI50 of the entry `O=c1[nH]c(-c2ccccn2)nc2sc3c(c12)CCCCCC3`
[reply] 4090 nM

[ask] For M14 melanoma, give the measured GI50 of the entry CC1(C)CC2(C)OC2C2(C1)N=NC(=Nc1ccccc1)O2 (centres undefined)
[reply] 5150 nM

[ask] For M14 melanoma, give the measured GI50 of the entry O=[N+]([O-])O.[NH-]C1CCCCC1[NH-].[NH-]C1CCCCC1[NH-].[NH-]C1CCCCC1[NH-].[OH-].[OH-].[OH-].[Pt+4].[Pt+4].[Pt+4] (centres undefined)
[reply] 918 nM

[ask] For M14 melanoma, give the measured GI50 of the entry `O=c1[nH]c2cc(O)ccc2n2cc3c(F)cccc3c12`
[reply] 1380 nM

[ask] For M14 melanoma, give the measured GI50 of the entry `Cn1cc(-c2nn3cc(-c4cccs4)nc3s2)c2cc(F)ccc21`
[reply] 1050 nM

[ask] For M14 melanoma, give the measured GI50 of the entry `CCOc1cccnc1/C=N/NC(N)=S`
[reply] 3140 nM

[ask] For M14 melanoma, give the measured GI50 of the entry CCOC(=O)Cc1csc(NC(=O)C(OC(=O)c2ccc(N)cc2)c2ccccc2)n1 (centres undefined)
[reply] 22600 nM

---

system: OVCAR-8 ovarian; assay: NCI tumour cell line growth inhibition, 48 h
measurement.label: TGI (µM)
Expressed in µM, but write only the number.

[ask] Tell me TGI reported for `Clc1ncc(C(Cl)(Cl)Cl)nc1-c1ccccc1`
[reply] 7.16

[ask] Tell me TGI reported for `COc1cc(/C=C2\C[C@H]3[C@@H]4CC=C5C[C@@H](N6CCCC6)CC[C@]5(C)[C@H]4CC[C@]3(C)[C@H]2OC(C)=O)cc(OC)c1OC`
[reply] 28.7

[ask] Tell me TGI reported for `C=CC[PH+](c1ccccc1)c1ccccc1.C=CC[PH+](c1ccccc1)c1ccccc1.[Cl][Pt][Cl]`
[reply] 31.5

[ask] Tell me TGI reported for CC(C)(C)NCCC(O)c1cc(C(F)(F)F)nc2c(C(F)(F)F)cccc12 (centres undefined)
[reply] 17.8
